System: Saccharomyces cerevisiae;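 note: PSI is a weighted mean of sequencing reads over stability bins, variants kept only with over 10 reads, mCherry proximal and sfGFP distal, peptide attached via GGGS linker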
Assay: protein stability index of tFT-peptide fusion (C-terminal peptide) (PSI (0-1 scale)); higher = more stable (slower turnover)
Conditions: genetic background: wild type; temperature: 30 C
Label scheme, based on protein stability index: range 1 = under 0.6, range 2 = from 0.6 up to 0.7, range 3 = 0.7 and over

# count of solved cases: 5
[
  {
    "chain": "VFWVFDGFEGFI",
    "measured-target": "Saccharomyces cerevisiae",
    "category": "range 3"
  },
  {
    "chain": "SPPTPRIPPPLP",
    "measured-target": "Saccharomyces cerevisiae",
    "category": "range 2"
  },
  {
    "chain": "LPSKSTVALGPL",
    "measured-target": "Saccharomyces cerevisiae",
    "category": "range 2"
  },
  {
    "chain": "ARNKKKDLREIK",
    "measured-target": "Saccharomyces cerevisiae",
    "category": "range 3"
  },
  {
    "chain": "YLFFVCLHLKAG",
    "measured-target": "Saccharomyces cerevisiae",
    "category": "range 1"
  }
]

Note: attention shifts to another entry.
**Query** Category lookup for the sequence GINFEIKFKRYN
**Result** range 3
